# credit: PubChem BioAssay (NCI)

system: COLO 205 colon; assay: NCI tumour cell line growth inhibition, 48 h; in the data active = GI50 below about 0.43 µM; inactive = the rest
Classes used: 1 (active), 0 (inactive)

MOLECULE: COc1cc2c3c(n(CCCn4ccnc4)c(=O)c2cc1OC)-c1ccccc1C3=O
QUALITATIVE LABEL: 1
--
MOLECULE: CCN(CC)CCCC(C)N/C(c1cccc(OC)c1)=c1\c(=O)[nH]n(-c2c3ccccc3nc3ccccc23)c(=O)\c1=C(/NC(C)CCCN(CC)CC)c1cccc(OC)c1 (stereo unspecified)
QUALITATIVE LABEL: 0
--
MOLECULE: CCSc1nc(=S)[nH]c2[nH]ncc12
QUALITATIVE LABEL: 0
--
MOLECULE: COc1cc(N)ccc1Nc1c2ccccc2nc2ccccc12
QUALITATIVE LABEL: 0
--
MOLECULE: Cc1ccc(-c2nc3nc(-c4ccc(Cl)cc4)nc(N4CCCNCC4)c3o2)cc1
QUALITATIVE LABEL: 0
--
MOLECULE: Cc1cc(S(=O)(=O)/N=C(\N)n2nc(C)c(C)c2C)c(SCc2ccccc2)cc1Cl
QUALITATIVE LABEL: 0
--
MOLECULE: Nc1c(C(=O)Nc2cccc3ccccc23)sc2nc3c(cc12)CCCCC3
QUALITATIVE LABEL: 0
--
MOLECULE: O=[N+]([O-])c1ccccc1/C=C/C=C1c2ccccc2-c2ccccc21
QUALITATIVE LABEL: 0
--
MOLECULE: CCC(=O)Nc1ccc2c(c1)CN1C(=O)c3ccccc3C1=N2
QUALITATIVE LABEL: 0
--
MOLECULE: N#C/C(=C\c1ccc(Br)cc1)n1nnc2cc(F)c(F)cc21
QUALITATIVE LABEL: 0
--
MOLECULE: O=C(/C=C/c1ccc2c(c1)OCO2)c1ccccc1
QUALITATIVE LABEL: 0
--
MOLECULE: COc1cc(/C=C/C(=O)CC(=O)/C=C/c2ccc(OC(=O)CCNC34CC5CC(CC(C5)C3)C4)c(OC)c2)ccc1OC(=O)CCNC12CC3CC(CC(C3)C1)C2
QUALITATIVE LABEL: 0
--
MOLECULE: O=C(c1cccs1)c1c(C(F)(F)F)n([O-])c2cc(C(F)(F)F)ccc2[n+]1=O
QUALITATIVE LABEL: 1
--
MOLECULE: C[C@@H](Oc1cc(-c2cnn(C3CC4(CCNCC4)C3)c2)cnc1N)c1c(F)ccc(Cl)c1Cl
QUALITATIVE LABEL: 1
--
MOLECULE: Cc1c(N(C(=O)c2cc(-c3cc(Cl)ccc3C(=O)N3Cc4ccccc4C[C@H]3CN3CCOCC3)n(C)c2C)c2ccc(O)cc2)cc(C#N)n1C
QUALITATIVE LABEL: 0
--
MOLECULE: C/C(=C\c1ccn(-c2ccc(N)cc2C(F)(F)F)n1)[C@@H]1C[C@@H]2O[C@]2(C)CCC[C@H](C)[C@H](O)[C@@H](C)C(=O)C(C)(C)[C@@H](O)CC(=O)O1
QUALITATIVE LABEL: 1
